Please go through the items and note down their melting point.

Supply measured melting point of O=C1CC2(CCCc3ccccc32)C(=O)O1 (stereo not given) in your reply.
99 to 101 °C

Supply measured melting point of Cn1cc(-c2nc(C(=O)O)cs2)cn1 in your reply.
262 to 264 °C

Supply measured melting point of Nc1ccc(Br)cc1S(=O)(=O)N1CCOCC1 in your reply.
142 to 144 °C

Supply measured melting point of O=C(O)c1csc(-c2cccc(C(F)(F)F)c2)n1 in your reply.
200 to 202 °C

Supply measured melting point of CCC(=CC(=O)O)c1cccc(Cl)c1 in your reply.
79 to 81 °C
